molecular target: recombinant human MAO-A (monoamine oxidase-A) (Homo sapiens); construct: purchased Sigma-Aldrich; assay: Activity on recombinant human MAO-A, method similar to the VAP-1 assay; assay type: biochemical; settings: substrate 0.5 mM tyramine; read-out: Inhibitory Activity (IC50, nM) MAO-A
Sequence (P21397 whole entry): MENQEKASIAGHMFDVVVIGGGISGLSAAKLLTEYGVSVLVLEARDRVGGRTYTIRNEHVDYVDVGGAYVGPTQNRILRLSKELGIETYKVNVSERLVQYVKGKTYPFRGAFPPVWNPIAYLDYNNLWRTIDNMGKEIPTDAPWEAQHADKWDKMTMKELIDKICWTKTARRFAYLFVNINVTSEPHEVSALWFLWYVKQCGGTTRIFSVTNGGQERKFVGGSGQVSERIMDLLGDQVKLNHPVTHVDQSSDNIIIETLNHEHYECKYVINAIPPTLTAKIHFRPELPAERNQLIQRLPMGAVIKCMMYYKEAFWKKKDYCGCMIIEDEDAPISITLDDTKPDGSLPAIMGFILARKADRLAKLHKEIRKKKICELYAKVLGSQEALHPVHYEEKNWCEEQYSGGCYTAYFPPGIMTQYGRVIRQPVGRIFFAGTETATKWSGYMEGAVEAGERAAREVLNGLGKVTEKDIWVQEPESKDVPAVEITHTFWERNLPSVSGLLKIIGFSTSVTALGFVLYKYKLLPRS
Counter-ions that a name gives are not always drawn.
For each record, write down the corresponding IC50.

| compound | experimental-readout | measurement |
| --- | --- | --- |
| NC/C(=C\F)Cn1ncn(Cc2ccc(-c3cnc4c(c3)CCCN4)s2)c1=O [Example 111] | IC50 | > 100000 nM |
| NC/C(=C\F)Cn1ncn(Cc2ccc(/C=C/c3cccc(F)c3)s2)c1=O [Example 118, hydrochloride] | IC50 | 140000 nM |
| Cc1cc(-c2ccc3sc(Cn4cnn(C/C(=C/F)CN)c4=O)cc3c2)cc2c1NC(=O)CC2 [Example 210] | IC50 | > 100000 nM |
| NC/C(=C\F)Cn1ncn(Cc2ccc(-c3ccc4c(c3)C(=O)NCC4)s2)c1=O [Example 74, hydrochloride] | IC50 | > 100000 nM |

# per-item lookup of IC50; items listed below
1. CN1CC=C(c2ccc(Cn3cnn(C/C(=C/F)CN)c3=O)s2)CC1 [Example 58, hydrochloride]
2. NC/C(=C\F)Cn1ncn(Cc2ccc(C#Cc3cccnc3)s2)c1=O [Example 127, hydrochloride]
3. CC(C)c1nc(-c2cccc(-c3ccc(Cn4cnn(C/C(=C/F)CN)c4=O)s3)c2)no1 [Example 38, hydrochloride]
4. NC/C(=C\F)Cn1ncn(CCc2ccc(-c3ccc(N4CCNCC4)cc3)s2)c1=O [Example 221]

1: > 100000 nM; 2: > 100000 nM; 3: 7900 nM; 4: > 100000 nM

Where do these numbers come from? They come from patent US11780830B2.
